Tested on: Klotho gene expression
Assay comment: Luciferase reporter assay to evaluate Klotho gene expression changes
Format: cell-based
Experimental conditions: HEK293 cells/pKlotho_Luc, overnight incubation, luciferase luminescence
Quantity: pEC50
// scale note: pEC50 = -log10(conc_M); give the bare number

Please look up its pEC50: C1=CC[C@@H](CNc2ncnc3c2ncn3C2CC2)CC1 7.00

* * *

Property: Activation, %; scope: individual compounds
Tested on: Klotho gene expression
Assay comment: Luciferase reporter assay to evaluate Klotho gene expression changes
Type: cell-based
Experimental conditions: HEK293 cells/pKlotho_Luc, overnight incubation, luciferase luminescence

The examples below pair each entry with its known result.
Compound | Recorded value
N#CCCn1ncc2c(NCCC3=CCCCCC3)ncnc21 | 122%
Fc1cccc2ncnc(NCCC3=CCCCC3)c12 | 86%
c1nc(NCCC2CCCC2)c2ncn(C3CC3)c2n1 | 87%
Nc1c(NCCC2=CCCCCC2)ncnc1-n1cccn1 | 98%
C1=CCC(CNc2ncnc3c2ncn3C2CC2)CC1 (centres unmarked) | 149%
C1=C(CCNc2ncnc3[nH]ccc23)CCCC1 | 150%
Cc1csc2ncnc(NCCC3=CCCCC3)c12 | 145%
Cc1csc2ncnc(NCCC3=CCCCCC3)c12 | 98%

Please look up its Activation, %: c1nc(NCCC2CCCCC2)c2ncn(C3CC3)c2n1 109%

Please look up its Activation, %: C1=CC[C@@H](CNc2ncnc3c2ncn3C2CC2)CC1 [Compound 49] 90%

Please look up its Activation, %: CCn1ncc2c(NCCC3=CCCCC3)ncnc21 151%

# credit: patent US20240189278A1
